Data provenance is ChEMBL document CHEMBL1156173.

# target_desc: Adenosine receptor A2b (Homo sapiens)
# Sequence (P29275 whole entry): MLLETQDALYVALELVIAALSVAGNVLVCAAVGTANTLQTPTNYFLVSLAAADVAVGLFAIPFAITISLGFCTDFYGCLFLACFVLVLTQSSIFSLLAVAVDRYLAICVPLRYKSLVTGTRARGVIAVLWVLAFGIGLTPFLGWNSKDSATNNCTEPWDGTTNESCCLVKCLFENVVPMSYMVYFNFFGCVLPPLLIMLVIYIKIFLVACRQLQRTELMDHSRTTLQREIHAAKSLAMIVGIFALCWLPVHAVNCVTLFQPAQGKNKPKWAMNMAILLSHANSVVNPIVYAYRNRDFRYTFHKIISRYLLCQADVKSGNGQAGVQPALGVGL
# assay_info: Antagonist activity at human adenosine A2B receptor expressed in CHO cells assessed as inhibition of NECA-stimulated adenylyl cyclase activity
EC50 by entry:
recorded_endpoint: EC50 (µM)

1) CSc1nc(NC(=O)Nc2ccc(C)cc2)n2nc(-c3ccco3)nc2n1 | 16.8
2) CSc1nc(NC(=O)Nc2ccccc2)n2nc(-c3ccco3)nc2n1 | 17.1
3) Cc1ccc(NC(=O)Nc2nc(Oc3ccccc3)nc3nc(-c4ccco4)nn23)cc1 | 20
4) CSc1nc(N)n2nc(-c3ccco3)nc2n1 | 14.9
5) Nc1nc(Oc2ccccc2)nc2nc(-c3ccco3)nn12 | 3.42
6) COc1ccc(CC(=O)Nc2nc(SC)nc3nc(-c4ccco4)nn23)cc1 | 42.4
